- measured on: Metabotropic glutamate receptor 8 (Rattus norvegicus)
- test: mGluR8 Gi/Go-coupled signaling modulation – cell-based, rat, thallium flux, HTS, primary screen (AID 488969)
- reported conditions: HEK293 rat mGluR8, GIRK thallium flux, FluoZin2; at 10 µM; stronger effect = higher value; submaximal glutamate (EC20) added with thallium
Whole data set: some 110,000 compounds, median “z-score” near -0.1, cut for the highest 2% near 2. The sample holds the highest values, similar compounds and a random draw of the others, so the mix is not that of the screen.
observed property: z-score
Please give only the number in your answer, with no unit.

Before answering, review these 8 worked examples.
Cc1ccc(NC(=O)CCSCCC(=O)Nc2ccc(C)c(C)c2)cc1C ... -0.0616
CCn1c(SCc2nc(-c3ccccc3)no2)nc2ccccc21 ... 3.16
Brc1ccc(-c2nnc3c4ccccc4nc(N4CCOCC4)n23)cc1 ... 4.42
O=C(Nc1ccc(F)c(F)c1)NC1CCCCC1 ... 3.01
CCn1c(SCc2nc(-c3ccccc3)no2)nnc1-c1ccco1 ... -0.421
CCc1cccc(NC(=O)CCSCCC(=O)Nc2cccc(CC)c2)c1 ... 3.02
COC(=O)CSC1=NS(=O)(=O)c2ccccc21 ... -2.06
c1ccc(CSc2nnnn2-c2ccccc2)cc1 ... -0.542

Query string: // lookup z-score for CCc1cccc(NC(=O)CSC2=NS(=O)(=O)c3ccccc32)c1
Result string: 3.52

Query string: Using the record for O=C(Nc1cccc(F)c1)NC1CCCCC1 , report its z-score.
Result string: 0.258

Query string: Please report the recorded z-score for Clc1ccc(-c2nnc3c4ccccc4nc(N4CCOCC4)n23)cc1Cl .
Result string: -0.168

Query string: Looking for the measured z-score of CCn1c(SCc2nc(-c3ccccc3)no2)nnc1-c1cccs1 , can you help?
Result string: 1.84

---

- measured on: Metabotropic glutamate receptor 8 (Rattus norvegicus) (UniProt P70579)
- Sequence (P70579 whole entry, looked up): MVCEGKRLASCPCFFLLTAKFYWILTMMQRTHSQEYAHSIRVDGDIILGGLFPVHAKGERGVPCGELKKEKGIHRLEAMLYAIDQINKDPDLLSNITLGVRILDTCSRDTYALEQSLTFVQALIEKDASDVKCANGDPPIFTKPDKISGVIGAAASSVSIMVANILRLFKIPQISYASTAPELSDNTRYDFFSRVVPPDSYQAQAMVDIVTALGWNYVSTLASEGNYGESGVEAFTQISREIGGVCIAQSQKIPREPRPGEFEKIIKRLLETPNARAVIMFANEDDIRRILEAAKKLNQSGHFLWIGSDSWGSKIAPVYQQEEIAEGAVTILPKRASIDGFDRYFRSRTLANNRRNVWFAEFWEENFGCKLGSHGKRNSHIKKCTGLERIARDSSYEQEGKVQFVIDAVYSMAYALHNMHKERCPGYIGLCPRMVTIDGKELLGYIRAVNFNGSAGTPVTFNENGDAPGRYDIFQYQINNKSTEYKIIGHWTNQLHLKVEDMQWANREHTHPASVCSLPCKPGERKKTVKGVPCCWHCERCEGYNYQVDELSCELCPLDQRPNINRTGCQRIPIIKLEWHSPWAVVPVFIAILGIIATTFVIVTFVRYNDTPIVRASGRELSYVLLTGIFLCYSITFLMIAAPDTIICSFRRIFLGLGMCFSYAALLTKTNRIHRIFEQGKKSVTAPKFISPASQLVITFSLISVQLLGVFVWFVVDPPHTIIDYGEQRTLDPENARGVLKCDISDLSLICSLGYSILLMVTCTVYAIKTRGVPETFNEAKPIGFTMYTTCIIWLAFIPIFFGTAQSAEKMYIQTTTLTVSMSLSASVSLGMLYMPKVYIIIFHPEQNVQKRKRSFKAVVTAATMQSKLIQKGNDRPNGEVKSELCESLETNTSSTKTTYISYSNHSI
- test: mGluR8 Gi/Go-coupled signaling modulation – cell-based, rat, thallium flux, HTS, primary screen (AID 488969)
- reported conditions: HEK293 rat mGluR8, GIRK thallium flux, FluoZin2; at 10 µM; stronger effect = higher value; submaximal glutamate (EC20) added with thallium
The full ranking holds about 110,000 compounds; the median of “z-score” is about -0.1, and the highest 2% start at about 2. The full list was thinned out, with the highest values kept by preference.
# label = Yes if z-score >= -0.04 else No

Cc1cc(C)c2[nH]c(=O)c(=O)[nH]c2c1 ... No
O=C(NC(=S)Nc1ccccc1N1CCCCC1)c1ccco1 ... Yes
O=C(NC(=S)Nc1ccccc1N1CCOCC1)c1cccs1 ... Yes

Kindly review the next compound as well.
Query string: Could you please find out whether CS(=O)(=O)N1CCN(c2ccccc2NC(=O)c2ccco2)CC1 has z-score that meets -0.04 or exceeds it?
Result string: No

---

- measured on: Metabotropic glutamate receptor 8 (Rattus norvegicus)
- test: mGluR8 Gi/Go-coupled signaling modulation – cell-based, rat, thallium flux, HTS, primary screen (AID 488969)
- reported conditions: HEK293 rat mGluR8, GIRK thallium flux, FluoZin2; at 10 µM; stronger effect = higher value; submaximal glutamate (EC20) added with thallium
In all, about 110,000 compounds were measured (“z-score”: median about -0.1, highest 2% from about 2 on). The list comes from a sample in which the highest values are over-represented; it also holds close analogues and randomly drawn compounds.
observed property: z-score
// response body must contain only the number

Sample answers from the record:
CC(=O)Nc1cc2c(cc1NC(=O)Cn1nc(-c3ccc4c(c3)OCCO4)ccc1=O)OCCO2 ... -0.275
COC(=O)Cc1[nH]nc2c1C(c1c[nH]c3ccccc13)C(C#N)=C(N)O2 (stereo unspecified) ... -0.415
O=C1c2ccccc2CN1CCNS(=O)(=O)c1ccc(Cl)cc1 ... -0.0894
CCOC(=O)/C(=N\Nc1ccc(OC)cc1)c1csc(Nc2ccccc2)n1 ... 0.551

Query string: // z-score lookup, key: COC(=O)c1c(NS(=O)(=O)c2cccs2)sc2c1CCCC2
Result string: 6.32

Query string: Reported z-score, molecule O=C(CCSCCC(=O)NCc1ccco1)NCc1ccco1 : ____
Result string: -0.212

Query string: Which z-score value belongs to COC(=O)c1c(NS(=O)(=O)Cc2ccccc2)sc2c1CCCC2 ?
Result string: 17

---

- measured on: Metabotropic glutamate receptor 8 (Rattus norvegicus) (UniProt P70579)
- test: mGluR8 Gi/Go-coupled signaling modulation – cell-based, rat, thallium flux, HTS, primary screen (AID 488969)
- reported conditions: HEK293 rat mGluR8, GIRK thallium flux, FluoZin2; at 10 µM; stronger effect = higher value; submaximal glutamate (EC20) added with thallium
In all, about 110,000 compounds were measured (“z-score”: median about -0.1, highest 2% from about 2 on). This excerpt belongs to a sample that is enriched for the highest values.
Item-by-item account of z-score
Please respond with just the number, no unit label.

COc1ccc(-c2csc(Nc3cccnc3)n2)cc1OC ... -0.0895
O=C(O)CCn1c(SCc2cccc3ccccc23)nc2ccccc21 ... 2.1
O=C(COc1ccc(Br)cc1CO)Nc1ccccc1F ... -0.0395
COc1ccccc1NC(=O)COc1ccc(Br)cc1CO ... 2.95

Query string: Fill in: z-score of COc1cc(C(=O)Nc2ccc(Oc3ncnc4sc(-c5ccccc5)cc34)cc2)cc(OC)c1OC is ___
Result string: 0.344

Query string: What does the data say about its z-score? Entry: O=C1CC(=C2c3ccccc3-c3ccccc32)C(=O)N1CCN1CCN(c2cccc(Cl)c2)CC1
Result string: -0.0614

Query string: Looking for the measured z-score of CCOC(=O)c1nnn(-c2nonc2N)c1-c1cccc2ccccc12 , can you help?
Result string: -1.66

---

This section presents molecules with their documented z-score values.
- measured on: Metabotropic glutamate receptor 8 (Rattus norvegicus) (UniProt P70579)
- test: mGluR8 Gi/Go-coupled signaling modulation – cell-based, rat, thallium flux, HTS, primary screen (AID 488969)
- reported conditions: HEK293 rat mGluR8, GIRK thallium flux, FluoZin2; at 10 µM; stronger effect = higher value; submaximal glutamate (EC20) added with thallium
The full ranking holds about 110,000 compounds; the median of “z-score” is about -0.1, and the highest 2% start at about 2. This is one part of a sample in which the highest values are shown more often than they occur.
API note: the answer field is a bare number with no unit suffix.

O=C(N/N=C/c1ccc(Cl)cc1Cl)Nc1ccccc1 ... -0.276
Cc1c(O)nc(SCC(=O)Nc2ccc3c4c(cccc24)CC3)n(-c2ccccc2)c1=O ... -0.768
CSc1ccccc1NC(=O)Nc1ccc(F)c(Cl)c1 ... -0.197

Query string: Record lookup: for Metabotropic glutamate receptor 8 (Rattus norvegicus) (UniProt P70579), what z-score belongs to CCOC(=O)c1ccc(Oc2c(C)oc3cc(OS(C)(=O)=O)ccc3c2=O)cc1 ?
Result string: -0.214

Query string: Give Metabotropic glutamate receptor 8 (Rattus norvegicus) (UniProt P70579) z-score for CCOC(=O)c1c(NC(=O)CSc2nc3ccccc3s2)sc(C(C)=O)c1C
Result string: -0.129

Query string: Metabotropic glutamate receptor 8 (Rattus norvegicus) (UniProt P70579) / z-score / O=C(NC(=S)NCc1ccccc1)c1ccccc1F : value?
Result string: 1.93

Query string: Field: z-score (Metabotropic glutamate receptor 8 (Rattus norvegicus) (UniProt P70579)). Entry: COP(=O)(OC)c1nc(-c2cccc3ccccc23)oc1NCc1ccccc1
Result string: -0.666

Query string: Find z-score (Metabotropic glutamate receptor 8 (Rattus norvegicus) (UniProt P70579)) for the entry O=C(NC(=S)NC(=O)c1ccccc1F)c1ccccc1F
Result string: 0.339

Query string: // fetch Metabotropic glutamate receptor 8 (Rattus norvegicus) (UniProt P70579) z-score for Cc1ccccc1C(=O)NC(=S)Nc1ccc(S(=O)(=O)N(C)c2ccccc2)cc1
Result string: 1.07

Query string: Lookup: z-score / Metabotropic glutamate receptor 8 (Rattus norvegicus) (UniProt P70579) / C/C(=N/NC(=O)c1ccc2c(c1)OCO2)c1ccc(NC(=O)C(F)(F)F)cc1
Result string: -0.151

Query string: Notebook entry, Metabotropic glutamate receptor 8 (Rattus norvegicus) (UniProt P70579) assay: z-score of CSc1ccccc1NC(=O)Nc1ccccc1 = ?
Result string: 0.531

---

- measured on: Metabotropic glutamate receptor 8 (Rattus norvegicus)
- test: mGluR8 Gi/Go-coupled signaling modulation – cell-based, rat, thallium flux, HTS, primary screen (AID 488969)
- reported conditions: HEK293 rat mGluR8, GIRK (G protein-gated inwardly rectifying potassium channel) thallium flux, FluoZin2; at 10 µM; stronger effect = higher value; submaximal glutamate (EC20) added with thallium
Whole data set: some 110,000 compounds, median “z-score” near -0.1, cut for the highest 2% near 2. Shown is part of a subset that was picked to be rich in the highest values.
Quick reference for z-score among some molecules
Hey, just send me the number, nothing else.

COc1ccc(-c2nn(-c3ccccc3)cc2C(=O)O)cc1OC ... 0.191

Query string: Can you look up the measured z-score of COc1ccc(NC2=CC(c3ccc(OC)c(OC)c3)N(c3ccc(OC)cc3)C2=O)cc1 (stereo unspecified) for me?
Result string: -0.044

Query string: Any idea what its z-score is? The molecule is O=C(COC(=O)c1ccco1)Nc1nc2ccccc2s1
Result string: 0.111
